target: HLA-A*31:01; assay: IEDB peptide-MHC binding, purified MHC/competitive/radioactivity; filed as Kd, often an IC50 or EC50 that approximates it; bounds were set here for any values at or beyond the usual limits of such assays; settings: source organism: Vaccinia virus WR
pKd: −log10 of the molar value.
Recorded pKd for the following sequences

Fill in the recorded pKd for this sequence, with HLA-A*31:01 as test system: `MIIKHIYEQY`
≤ 4.15

Same for `YFTFGDTALY`
≤ 4.32

Others:
Fill in the recorded pKd for this sequence, with HLA-A*31:01 as test system: `EMVDELVTRK`
≤ 4.15

Same for `DIICEDAMY`
≤ 4.11

Same for `NFFTELENKK`
≤ 4.15
